Item-by-item account of PBM binding z-score
- System: PPARg DBDmut IVT, anti-PPARg (DBD mutation: PPARg1 K132A/R137A, NR concentration 270 nM)
- protocolText: PBM binding z-score (relative to random genomic background probes); higher = stronger binding; sequences stand for … in GC…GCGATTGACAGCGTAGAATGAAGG

| querySequence | dataValue |
| --- | --- |
| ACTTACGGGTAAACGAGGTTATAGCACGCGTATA | 0.0677 |
| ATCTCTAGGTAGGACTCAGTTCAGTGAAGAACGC | 1.31 |
| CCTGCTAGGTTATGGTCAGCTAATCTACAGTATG | 0.438 |

Query :: Quick one: give measured PBM binding z-score for `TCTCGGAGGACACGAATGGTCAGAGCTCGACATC`
Result :: -0.622

Query :: Identify measured PBM binding z-score corresponding to `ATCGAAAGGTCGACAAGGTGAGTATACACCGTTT`
Result :: 1.65

Query :: Dear colleague, please send me the reported PBM binding z-score for `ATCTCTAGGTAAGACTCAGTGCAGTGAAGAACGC` when you can.
Result :: 0.958

Query :: Determine its reported PBM binding z-score: `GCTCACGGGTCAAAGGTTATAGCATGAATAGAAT`
Result :: 0.56

Query :: Fill in reported PBM binding z-score for this entry: `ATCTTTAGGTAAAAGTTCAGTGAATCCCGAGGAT`
Result :: 1.31

Query :: Read the entry `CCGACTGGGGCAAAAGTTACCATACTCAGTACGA` and write its reported PBM binding z-score.
Result :: -0.288

----------
- Tested on: VDR:RXRa (NR concentration 270 nM, RXRa partner concentration 90 nM)
- protocolText: PBM binding z-score (relative to random genomic background probes); higher = stronger binding; sequences stand for … in GC…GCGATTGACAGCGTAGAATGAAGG
endpointName: PBM binding z-score
Could you keep your reply to the number by itself?

| querySequence | endpointName | dataValue |
| --- | --- | --- |
| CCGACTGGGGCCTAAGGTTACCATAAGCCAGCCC | PBM binding z-score | -0.158 |
| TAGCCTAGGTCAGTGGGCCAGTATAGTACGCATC | PBM binding z-score | 0.148 |

Query :: State its PBM binding z-score: `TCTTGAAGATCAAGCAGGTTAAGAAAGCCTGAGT`
Result :: 0.401

Query :: Please give the documented PBM binding z-score of `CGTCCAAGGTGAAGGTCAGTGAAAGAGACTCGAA`
Result :: 0.859

Query :: Report measured PBM binding z-score; entry is `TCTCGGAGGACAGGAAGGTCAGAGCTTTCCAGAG`
Result :: 1.57

Query :: Give reported PBM binding z-score value for `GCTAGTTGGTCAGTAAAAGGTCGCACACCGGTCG`
Result :: 1.39

Query :: Identify measured PBM binding z-score associated with `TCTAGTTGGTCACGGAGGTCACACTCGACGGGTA`
Result :: 5.86

Query :: Given the sequence `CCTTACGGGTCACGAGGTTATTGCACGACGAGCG` , write its reported PBM binding z-score.
Result :: 5.3

Query :: Give a short answer stating reported PBM binding z-score for `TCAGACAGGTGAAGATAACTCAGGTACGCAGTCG` .
Result :: 0.709
